Tested on: SpTbr T-box DNA-binding domain (GST fusion);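 further: protein at 200 nM in PBS on universal double-stranded arrays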
Sequence: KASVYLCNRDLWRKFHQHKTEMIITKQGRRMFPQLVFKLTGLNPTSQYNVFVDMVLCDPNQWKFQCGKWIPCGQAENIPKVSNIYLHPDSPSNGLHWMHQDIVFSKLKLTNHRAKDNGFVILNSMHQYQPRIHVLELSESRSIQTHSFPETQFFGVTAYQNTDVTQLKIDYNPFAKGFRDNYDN
Experiment Notes: PBM E-score of 8-mer (E-score (dimensionless, -0.5 to 0.5)); Tbr is Tbrain of the sea star Patiria miniata (Pm) or the sea urchin Strongylocentrotus purpuratus (Sp); higher = stronger binding preference
Assay Context: the construct has about 5 more residues each side
Whole data set: some 33,000 sequences, median “E-score (dimensionless, -0.5 to 0.5)” near -0.046, cut for the highest 2% near 0.36. What follows is part of a selection rich in the highest values, with near analogues and random picks from the rest.

Monomer Sequence | PBM E-score of 8-mer
ATTCACAG | 0.395
AACTAGGG | 0.0057
TTGTTAAA | 0.184
CACACCCG | 0.448
TGTTAACA | 0.421
AGATATTC | -0.243
CCCACCCG | 0.0685
CTGTTAGA | 0.11
CGCGAGCA | 0.275
GAACGAGC | -0.187
AGTTAACG | 0.127
ACACTCTC | 0.369
AGTTCGCA | 0.373
ACACTTAC | 0.4
AGGGTGCC | 0.267
CCCACCCA | 0.185
AATAGATG | 0.0328
AGTGTTAT | 0.372
CCTATTCG | -0.116
ACTCACAT | 0.124
GTGTTAAA | 0.395
CAGCGCGA | 0.199
AGGGTGTA | 0.307
CGGAGATA | 0.0372
CGGGTGTC | 0.361
CGATACAG | -0.0251
AGGGACGA | 0.053
ATAGCCAT | -0.118
GCTTACAC | 0.219
CCACTTAC | 0.161
AGTTCGCG | 0.296
CCCCAAAA | -0.112
GAGCGCGA | 0.279
ATGGTCCG | -0.11
GGTCGCAC | 0.365
AACTGCTC | 0.00139
GAATCTGC | -0.0922
AGGGGGTG | 0.269
CGTTAACA | 0.413
CATAAAGA | -0.0483
ATTCACTC | 0.115
GGTTAACA | 0.287
AGTCGCAA | 0.132
AGTGCTGA | 0.0461
TATGTTAA | 0.0661
AGGGTGTG | 0.449
ACTCTTAT | -0.0294
ATGTTAGA | -0.136
AAGCGCGG | 0.136
AGTCGCAG | 0.0537
CAGACAAA | -0.0589
CACCCCCG | 0.234
CCTCACAC | 0.472
GTGTTAGA | 0.384
CTCCCTTC | -0.214
ATTCACAA | 0.299
GGCGACAA | 0.368
AGTTCGCC | 0.0613
AGTGTTGA | 0.351
ACTTACAC | 0.251
ACGGTGTC | 0.271
GGTTCGCA | 0.378
AGTCTACG | -0.209
ATTCACTG | 0.0169
AGGGTGTC | 0.401
CGTGTTTA | 0.123
ATAGCCGG | -0.203
GCACTTAC | 0.208
AGTTAACA | 0.334
CGTTCGCC | 0.11
CAATCCTA | -0.0316
GGTCGCAA | 0.208
CCAGCACC | 0.216
ACAGTTGA | 0.2
TACACCCA | 0.105
ATCACCCG | 0.12
AAGCGCGC | 0.0762
ACTCACAC | 0.469
ATTCACAC | 0.481
CCGGGATC | -0.0846
GGGGTACC | -0.174
GCCCGTCC | -0.216
ACCAGACT | -0.194
CACCCCCC | 0.184
CAGCTAGG | 0.101
TAGCGCGA | 0.378
CGTTCGTA | -0.134
ACACTTAA | 0.336
ATTTGTGG | 0.075
AACTTAAT | -0.0641
CATTAACA | 0.329
